Tested on: Plasmodium berghei
method: Screen against P. berghei liver stage (PbLuc), transformed with Luciferase, at 10uM
Type: functional, HepG2
measurement conditions: tested at 10 uM
About 8,600 (12%) of roughly 69,000 compounds showed an effect of 50% or more. The sample as a whole holds a higher share of strong results than the screen did.
Provide the reported INHIBITION of each item.
Enter your answer as a number in %; do not include the unit.

Q: Requested read-out: INHIBITION. Entry: Cc1noc([C@@H]2C[C@H]3OCC[C@H]3N(S(=O)(=O)c3cccnc3)C2)n1
A: 30.1

Q: Okay, and CNC(=O)[C@H]1C[C@@H]2CCN(CCc3ccccc3)C[C@@H]2O1 ?
A: 18.3

Q: Okay, and Cc1ncccc1NC(=O)[C@H]1C[C@@H]2CCN(Cc3nccs3)C[C@@H]2O1 ?
A: 31.8

Q: Okay, and CC(C)(C)c1nnc2n1C(C(=O)N1CCOCC1)CC2 (stereo not drawn) ?
A: -3.93

Q: Okay, and O=C1CC(c2ccc(F)cc2)c2cnn(C3CCCC3)c2N1 (stereo not drawn) ?
A: 70.2

Q: Okay, and O=C([C@@H]1C[C@@H]2CCN(Cc3ccoc3)C[C@H]2O1)N1CCCC1 ?
A: 26.7

Q: Okay, and Cc1ccc(C(=O)NC(C)Cn2cccn2)c(=O)[nH]1 (stereo not drawn) ?
A: 42.6

Q: Okay, and CCN1Cc2c(C(=O)NCC3CC3)ncn2-c2ccccc2S1(=O)=O ?
A: 0.139

Q: Okay, and Cc1ccc(C(=O)NCC(C)Cn2ccnc2C)c(=O)[nH]1 (stereo not drawn) ?
A: 55.5

Q: Okay, and N#Cc1ccc(C2CC(=O)Nc3c2cnn3C2CCCC2)cc1 (stereo not drawn) ?
A: -11.1

Q: Okay, and Cc1n[nH]c(C)c1NC(=O)CN1CCCC1c1noc(C(C)C)n1 (stereo not drawn) ?
A: 14.1

Q: Okay, and O=C(O)c1cc(-c2ccncc2)cc(S(=O)(=O)N2CCCCCC2)c1 ?
A: -8

Q: Okay, and COc1ccccc1CN1CC[C@H]2C[C@@H](C(=O)N3CCCC3)O[C@H]2C1 ?
A: -16.6

###

Provide the reported INHIBITION of each item.
System: Plasmodium berghei
method: Screen against P. berghei liver stage (PbLuc), transformed with Luciferase, at 10uM
Assay type: functional, HepG2
measurement conditions: tested at 10 uM
Hit rate of the full screen: of about 69,000 compounds, about 8,600 (12%) showed an effect of 50% or more. What follows is part of a selection rich in strong results, with near analogues and random picks from the rest.
Enter your answer as a number in %; do not include the unit.

Q: Requested read-out: INHIBITION. Entry: CCOC(=O)N1CCN(C(=O)CCn2cccc2)CC1
A: 35

Q: Okay, and NC(=O)c1csc(C(=O)N2CCCC(n3cccn3)C2)c1 (stereo not given) ?
A: 23.4

Q: Okay, and N#Cc1ncn(CCS(=O)(=O)c2ccc(Cl)cc2)n1 ?
A: 54.3

Q: Okay, and O=C(NCc1cccnc1N1CCCC(O)C1)c1ccsc1 (stereo not given) ?
A: 74.3

Q: Okay, and C[C@H](c1ccc(F)cc1)n1c(C2CCN(C)CC2)n[nH]c1=O ?
A: 76.8

Q: Okay, and O=C1CN(c2cc(-c3ccccc3F)nc3ccnn23)CCCN1 ?
A: 6.11

Q: Okay, and COc1cc2cc(C)c(SCCN3CCCC3)nc2cc1OC ?
A: 33.2

Q: Okay, and N#Cc1ncn(CCC(=O)Nc2ccccc2F)n1 ?
A: -3.77

Q: Okay, and COc1cc2cc(C)c(SCCN3CCCCC3)nc2cc1OC ?
A: 51.7

Q: Okay, and Cc1cnc(C(=O)N2CCOCC2c2ccccc2)cn1 (stereo not given) ?
A: 43.6

Q: Okay, and CCNC(=O)C1CCN(c2cc(-c3ccccc3)nc3ccnn23)C1 (stereo not given) ?
A: 33

Q: Okay, and N#Cc1ncn(CCC(=O)Nc2cc(Cl)ccc2Cl)n1 ?
A: -22.1

Q: Okay, and Cc1nc(CCNC(=O)NC2CCCN(c3ncccn3)C2)cs1 (stereo not given) ?
A: 8.03

Q: Okay, and CCS(=O)(=O)NCc1cccnc1N1CCCC(O)C1 (stereo not given) ?
A: 89.1

Q: Okay, and C[C@H](c1ccc(Cl)cc1)n1c(C2CC2)n[nH]c1=O ?
A: 24.4

Q: Okay, and CN1CC2(CCN(CCCOCc3ccccc3)CC2)OC1=O ?
A: 42.8

Q: Okay, and Cc1nnsc1C(=O)NCc1cccnc1N1CCc2ccccc2C1 ?
A: 5.8

Q: Okay, and CS(=O)(=O)Nc1ccc2c(c1)NC(=O)CC2c1cnn2cccnc12 (stereo not given) ?
A: -27.5

Q: Okay, and C[C@H](c1ccc(F)cc1)n1c(C2CCC2)n[nH]c1=O ?
A: -6.59

Q: Okay, and CC(=O)NC1CCN(c2cc(-c3ccccc3)nc3c(C)c(C)nn23)C1 (stereo not given) ?
A: -3.58

Q: Okay, and O=C(NCc1cccnc1N1CCCCC1)c1cccs1 ?
A: 7.12

Q: Okay, and CC(C)N(CC(=O)Nc1cccc(C(=O)N(C)C)c1)C1CC1 ?
A: -0.614

Q: Okay, and Cc1nnsc1C(=O)NCc1cccnc1N1CCCC(O)C1 (stereo not given) ?
A: 66.3

Q: Okay, and O=C(c1ccco1)N1CCc2ncc(CN3CCOCC3)n2CC1 ?
A: 5.44

Q: Okay, and CCC1CCCN(C(=O)NCc2cccnc2-n2cccn2)C1 (stereo not given) ?
A: 33.8

Q: Okay, and CCc1ccc(CCn2cnc(C#N)n2)cc1 ?
A: 37.4

Q: Okay, and CNC(=O)CN1CCCC(Cc2ccccc2OC)C1 (stereo not given) ?
A: 59

Q: Okay, and CCOc1ncccc1NC(=O)c1ccc(C(C)=O)s1 ?
A: 7.24

Q: Okay, and Cc1nn(C)c(Cl)c1C1CCCN1C(=O)c1ccc[nH]1 (stereo not given) ?
A: 25.1

Q: Okay, and CCNC(=O)C1CCN(c2nccc(C3CCCC3)n2)C1 (stereo not given) ?
A: -2.34

Q: Okay, and CCNC(=O)C1CCN(c2cc(-c3ccccc3F)nc3ccnn23)C1 (stereo not given) ?
A: 53.3

Q: Okay, and Cc1nnc([C@@H]2CC[C@@H]3[C@@H](CCN3C3CCOCC3)O2)o1 ?
A: 60.3

Q: Okay, and CCn1nnc(NCc2ccccc2OCc2ccc(Cl)cc2)n1 ?
A: -3.5

Q: Okay, and CC(C)CNC(=O)CNC(=O)NC(C)COc1ccccc1F (stereo not given) ?
A: -24.5

Q: Okay, and CC(NC(=O)CSCC#N)c1ccc(F)cc1 (stereo not given) ?
A: -13.3

Q: Okay, and CC(C)C(=O)N1CC[C@@H]2[C@H](CC1)N(Cc1cccnc1)CCS2(=O)=O ?
A: -20.1

Q: Okay, and Cc1nn2c(N3CCCC(C(N)=O)C3)cc(-c3ccccc3)nc2c1C (stereo not given) ?
A: -32.2

Q: Okay, and CCc1cc(N2CC(N3CCCCC3C)C2)n2nccc2n1 (stereo not given) ?
A: 12.8

Q: Okay, and CCc1ncc2c(n1)CN(CC(=O)Nc1cccnc1)CC2 ?
A: 19.4

Q: Okay, and COc1cccc(NC(=O)CN(C(C)C)C2CC2)c1 ?
A: 20

###

Provide the reported INHIBITION of each item.
Tested on: Plasmodium berghei
method: Screen against P. berghei liver stage (PbLuc), transformed with Luciferase, at 10uM
Type: functional, HepG2
measurement conditions: tested at 10 uM
The campaign covered roughly 69,000 compounds. About 8,600 (12%) showed an effect of 50% or more. What follows is part of a selection rich in strong results, with near analogues and random picks from the rest.
Enter your answer as a number in %; do not include the unit.

Q: Requested read-out: INHIBITION. Entry: O=C(Nc1ccc(F)cc1)N1CCC2(CCC(=O)N(C3CC3)C2)CC1
A: 31.6

Q: Okay, and COCCn1c(-c2cccc(OC)c2)cnc1NC(=O)NC(C)C ?
A: 18.4

Q: Okay, and NS(=O)(=O)CCN1CCN(c2ccccc2O)CC1 ?
A: -24.7

Q: Okay, and O=C(c1c[nH]c(=O)[nH]1)N1CCCC2(CCC(=O)N(C3CCCC3)C2)C1 (stereo not drawn) ?
A: 37.7

Q: Okay, and CCC(C)[C@H](N)c1nnc(SCC(=O)Nc2cc(C)ccc2C)o1 (stereo partly drawn) ?
A: 22.2

Q: Okay, and Cc1ccncc1C(=O)N1C[C@H]2CN(CC3CCC3)C[C@@]2(C(=O)O)C1 ?
A: 42.3

Q: Okay, and CCN(CC)S(=O)(=O)c1ccc(C(F)(F)F)cc1C#N ?
A: 27.6

Q: Okay, and c1ccc2c(c1)CCN(c1nc(N3CCOCC3)c3nn[nH]c3n1)C2 ?
A: 54

###

Provide the reported INHIBITION of each item.
Test system: Plasmodium berghei
method: Screen against P. berghei liver stage (PbLuc), transformed with Luciferase, at 10uM
Format: functional, HepG2
measurement conditions: tested at 10 uM
In all, about 69,000 compounds went through this assay and about 8,600 (12%) showed an effect of 50% or more. The sample as a whole holds a higher share of strong results than the screen did.
Enter your answer as a number in %; do not include the unit.

Q: Param readout = INHIBITION; param system = Plasmodium berghei; param query = C[C@@H]1CN(C(=O)C2CCS(=O)(=O)CC2)C[C@]1(C)O ; response: value
A: -7.81

Q: Okay, and NC1(C(=O)NCCC2CN(Cc3ccco3)CCO2)CCCC1 (stereo not drawn) ?
A: 20

Q: Okay, and CN1CCCC(c2cncc(C(=O)NCc3ccccc3Cl)n2)C1 (stereo not drawn) ?
A: -54.1

Q: Okay, and Cc1nn(C)c2nc(C3CC3)c(Cl)c(C(=O)O)c12 ?
A: 23.4

Q: Okay, and COc1ccc(OCc2cc(C(=O)N3CCN[C@H](C)C3)n[nH]2)c(Cl)c1 ?
A: 65.1

Q: Okay, and C[C@@H]1C[C@@H]2CCN(Cc3ccncc3)C[C@H]2O1 ?
A: 15.9

Q: Okay, and Cc1cccc(CN2CC[C@H]3C[C@@H](C)O[C@@H]3C2)n1 ?
A: 76.5

Q: Okay, and Clc1snnc1CN1CCCC1Cn1cccn1 (stereo not drawn) ?
A: -36.1

Q: Okay, and Fc1ccc2c(C3=CCN(Cc4nnc(C5CCC5)o4)CC3)c[nH]c2c1 ?
A: 34.6

Q: Okay, and CCn1nc(C)c(C(=O)Nc2ccc3c(c2)C(C)(C)C(=O)N3C)c1C ?
A: 23.4

Q: Okay, and Cn1cc(C(=O)N2CC[C@@H]3[C@@H]2CCN3Cc2ccccc2)cn1 ?
A: 5.44

Q: Okay, and COc1ccccc1CN(Cc1nc(Cc2ccccc2)no1)C1CC1 ?
A: 21.3

Q: Okay, and CC(C)COCCC(=O)NS(=O)(=O)c1ccc(Cl)s1 ?
A: 62.4

Q: Okay, and NCC1(c2cccc(Br)c2)CCOCC1 ?
A: -51.5

Q: Okay, and CN(C)CCN(C)C(=O)Cn1cccc2cc(-c3ccc(F)cc3)nc1-2 ?
A: 26.7

Q: Okay, and Cc1c(Cl)cccc1N1CC(c2nnc(N)s2)CC1=O (stereo not drawn) ?
A: 35.8

Q: Okay, and O=C(NCc1ccnc(OCC(F)(F)F)c1)NCC1CCCO1 (stereo not drawn) ?
A: -20.3

Q: Okay, and Cc1cnc(CN2CC=C(c3c[nH]c4ncccc34)CC2)o1 ?
A: 44.9

Q: Okay, and Cc1cccc(C(=O)N2CC[C@H]3C[C@@H](C)O[C@@H]3C2)n1 ?
A: 7.31

Q: Okay, and N#CC1COCCN1C(=O)c1ccc2[nH]cnc2c1 (stereo not drawn) ?
A: -13.9

Q: Okay, and CCN1CCN(C(=O)Cc2ccc(S(=O)(=O)C(F)F)cc2)CC1 ?
A: 55.9

Q: Okay, and CC(=O)c1ccc(OCC(=O)NS(=O)(=O)c2ccc(Cl)s2)cc1 ?
A: 36.8

Q: Okay, and O=C(Cc1ccc(S(=O)(=O)C(F)F)cc1)N1CCC1 ?
A: 43.9

Q: Okay, and COc1cccc(CNC2CCSC2)c1OC (stereo not drawn) ?
A: -7.85

Q: Okay, and C[C@H]1C[C@H]2CN(Cc3ccccn3)CC[C@@H]2O1 ?
A: 46.2

Q: Okay, and Cc1cc(C)n(CC(C)CNC(=O)[C@@H](C)NC(=O)OC(C)(C)C)n1 (stereo partly drawn) ?
A: -45.8

Q: Okay, and CN(C)C(=O)C1CN(Cc2ccccn2)CCN(S(C)(=O)=O)C1 (stereo not drawn) ?
A: 89.3

Q: Okay, and Clc1ccc(-c2ccc(C3CNCCO3)nc2)cc1 (stereo not drawn) ?
A: 94.6
